test.target: CodY (6His-CodY) (Streptococcus suis serotype 2 (strain SC19?)) (UniProt A0A0H3MTH0)
Sequence: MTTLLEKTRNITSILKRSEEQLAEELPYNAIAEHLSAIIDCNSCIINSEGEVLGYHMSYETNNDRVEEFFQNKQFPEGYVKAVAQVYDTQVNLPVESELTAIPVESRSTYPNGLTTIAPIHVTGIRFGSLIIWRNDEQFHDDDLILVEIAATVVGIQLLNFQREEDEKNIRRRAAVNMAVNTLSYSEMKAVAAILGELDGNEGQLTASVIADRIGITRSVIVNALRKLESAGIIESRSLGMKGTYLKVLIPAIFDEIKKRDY
experimental.protocol: EMSA
measurement.parameters: EMSA: 1 ug PCR product with 0-2200 ng CodY in binding buffer (Beyotime; composition, pH and salt not given), 30 min at 37 C, native PAGE, ethidium bromide …
readout.type: binding

{"chain.sequence": "TCTGTATTTATCATTGTAGTCCTATCTGCAACAGTAGAAAATTATATTGTAAATTTAAGTTTTGTATTTATGCCAATATGTTTTTGTTTATTAAATTCTATATCTACTATGGAATCAACTATTAACAAACAACTGCAAACATAAATTGGCAGGAATAGAGTTTTGAGTTGCTATTAATTTGGTAGAGCATATGTTCTATAGGTGGCAAGATAGAAGATAGTATTTTTTACATGATGATTTTTATGATAGCA (double strand) [cps2J promoter]", "result": "binds"}
{"chain.sequence": "ATCTCGGTCTTTGGTTGTTTGGCTTTACAGCTCTATACTTTGTGGCAGCTTATCTGATTGCCCTCAATCCATCTCAAATCTTAAATAGTATCGGACGTATTTTAACCCCTGTTTTTGCGATTTTGATTGTGATTTTGGTGGTGCTTGGTATTGTTAAGTACGGATCAACAAGTCCGTTACCAGCTTCGGAAGCTTACTCAGCAGGACAGGCATTTGGTACAGGATTTATCGAGGGATACAATACACTCGACGCACTTGCTTCTATTGCTTTTAGTGTCGTAGCAGTAAATACCT (double strand) [bap2 promoter]", "result": "binds"}
{"chain.sequence": "AATACAAGCGACGATTCCCTTCGTTGCGATCGGGCTTAATCAAGCCTTGATCTTCATAGTAACGAATTTGACGAGCAGTTAAATCTGTCAACTTCATCACACTACCGATCGGAAAGATAGCTAAGGAACGACGAAACTCTTTTTCTCTCATAATGAACTCCTTTCTGCCTACCATTATAGGAGAATTTTTTTTTGAGGTCAATAGGTGATGTTATATTTTATAACATCATTTATCCTGAAAACGTTTTTTTATAACATTCACATCATAATTAACTAGAATCGCAATGAAAACTCC (double strand) [glnR promoter]", "result": "binds"}
